This collection of values is drawn from paper PMC9656727.

# test_protocol: Heme-binding assay by mass spectrometry with collision-induced dissociation of adducts (DV50)
# test_conditions: energy dissociating 50% of the heme-Fe(III) adduct; NA = no adduct
Output fulfilled for records whose DV50 is lower than 6 eV, not fulfilled for records at or above 6 eV.

COc1cc(OC)c(C(=O)/C=C/c2ccccc2)c(O)c1C :: fulfilled
CCN(CC)CCCC(C)Nc1ccnc2cc(Cl)ccc12 (stereo not drawn) [CQ, Chloroquine, reference compound] :: not fulfilled
COc1cc(OC)c2c(c1C)OC(c1ccccc1)CC2=O (stereo not drawn) :: not fulfilled
COc1ccc(CCNC(=O)c2ccccc2)cc1 :: not fulfilled

hey, is DV50 for COc1cc(O)cc(O)c1C(=O)/C=C/c1ccccc1 lower than 6 eV or not?
fulfilled
